From: the Human Domainome abundance scans (Beltran et al. 2025)

B1: REST corepressor 3, residues 87 to 134; numbered along this chain, Q9P2K3 (parent)
chain: DEWTVEDKVLFEQAFSFHGKSFHRIQQMLPDKTIASLVKYYYSWKKTR

Variants of: B1
Test: abundance fitness (aPCA) (normalised: wild type 0, dead -1); higher = more abundant; growth selection in yeast, the domain comes from the species named
Details: Homo sapiens
MEASURE_NAME: abundance fitness
Give only the figure.

VARIANT: E2N
REPORTED_MEASUREMENT: 0.294
--
VARIANT: V5K
REPORTED_MEASUREMENT: 0.208

Entry I25E : reported abundance fitness = ?
-0.693

One more variant: K20A
-0.343

One more variant: F17G
-0.793

One more variant: V38C
-0.647

One more variant: L29F
-0.302
